TEST_TARGET: rat albumin (rat) (UniProt P02770)
Sequence (P02770 25-608 limits assumed): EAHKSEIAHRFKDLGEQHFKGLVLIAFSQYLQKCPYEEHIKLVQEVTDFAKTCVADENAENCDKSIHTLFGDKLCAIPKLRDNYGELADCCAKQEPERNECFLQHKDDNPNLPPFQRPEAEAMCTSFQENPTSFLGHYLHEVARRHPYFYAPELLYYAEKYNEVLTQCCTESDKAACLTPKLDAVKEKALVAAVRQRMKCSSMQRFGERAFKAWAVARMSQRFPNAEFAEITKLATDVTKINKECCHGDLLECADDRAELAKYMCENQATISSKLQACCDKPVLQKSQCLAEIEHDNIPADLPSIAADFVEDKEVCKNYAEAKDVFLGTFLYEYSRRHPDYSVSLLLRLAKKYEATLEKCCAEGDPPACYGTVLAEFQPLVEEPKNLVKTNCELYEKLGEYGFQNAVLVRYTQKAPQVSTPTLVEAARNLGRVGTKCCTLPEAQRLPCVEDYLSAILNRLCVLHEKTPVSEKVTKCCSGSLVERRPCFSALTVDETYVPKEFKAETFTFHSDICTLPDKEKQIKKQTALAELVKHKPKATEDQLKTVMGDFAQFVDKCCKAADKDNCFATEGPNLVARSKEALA
TEST_DETAILS: solution binding ELISA (Scatchard)
Bridges are numbered along the chain shown (N, C = ends). Where no end group is shown, it is not given here.
MEASURED_ATTRIBUTE: Kd (µM)
Return type: number; implicit unit µM.

Asked: Would you kindly share the measured Kd for {Fab4D5 heavy chain (…CDKTH)}-DICLPRWGCL (Fab, part only; not given: Carrier Fab (trastuzumab), not shown: another chain or arm of the molecule; large carriers, disulfide 3-9) [AB.Fab4D5-H11] ?
Given back: 2.43
